Readings of 5+ nucleoli phenotype percent effect for the listed sequences
Test system: MCF10A
Assay: 5+ nucleoli phenotype percent effect (relative to siNT 0% and siKIF11 100%); higher = more cells with five or more nucleoli
Conditions: 20 nM; 72 h
Give the number; % is assumed, so skip it.

Worked examples, 4 sequences total:
CAGAUCAUGGGACUGUCUCAG [hsa-miR-5694]    22.8
CACAAGGUAUUGGUAUUACCU [hsa-miR-624-3p]    -46.2
UAAAUUUCACCUUUCUGAGAAGG [hsa-miR-513a-3p]    -3.52
CAAAAAUCUCAAUUACUUUUGC [hsa-miR-548c-3p]    42.3

Ask: What 5+ nucleoli phenotype percent effect value was documented for this sequence, UGGUUCUCUUGUGGCUCAAGCGU [hsa-miR-597-3p] ?
Result: -23

Ask: Also UCAGGCAGUGUGGGUAUCAGAU [hsa-miR-4692] , if possible.
Result: -11.4

Ask: Also AUGGAAUGUAUAUACGGAAUA [hsa-miR-3673] , if possible.
Result: -48.6

---

Test system: MCF10A
Experiment: one-nucleolus phenotype percent effect (relative to siNT 0% and siNOL11 100%); higher = more cells with one nucleolus (ribosome biogenesis inhibition)
Conditions: 20 nM; 72 h
If the reported one-nucleolus phenotype percent effect equals or exceeds 10%, assign yes. If not, assign no.

Previously resolved entries follow.
CCACGUGCUUCUCUUUCCGCAG [hsa-miR-6767-3p]    yes
AUGUGGGCUCAGGCUCA [hsa-miR-4296]    yes
GCUGCGGGCUGCGGUCAGGGCG [hsa-miR-4734]    no
UCGGGGCAUGGGGGAGGGAGGCUGG [hsa-miR-6775-5p]    no
UGAGUGUGUGUGUGUGAGUGUGU [hsa-miR-574-5p]    no

Ask: Could you tell me if the measured one-nucleolus phenotype percent effect of AACAGGUGACUGGUUAGACAA [hsa-miR-552] reaches 10% or more?
Result: no

---

System: MCF10A
Experiment: 5+ nucleoli phenotype percent effect (relative to siNT 0% and siKIF11 100%); higher = more cells with five or more nucleoli
Settings: 20 nM; 72 h
recorded.metric: 5+ nucleoli phenotype percent effect (%)
Give the number; % is assumed, so skip it.

GAAGGCGCUUCCCUUUGGAGU [hsa-miR-524-3p]    -9.32
AAAAGUAAUUGCGGUUUUUGCC [hsa-miR-548am-5p]    39.6
UGGUUCUAGACUUGCCAACUA [hsa-miR-182-3p]    -35.8
GGUGGAUAUUCCUUCUAUGUU [hsa-miR-376c-5p]    -0.73
AGAAGGCACUAUGAGAUUUAGA [hsa-miR-605-3p]    -49.9
CUCCUGGGGCCCGCACUCUCGC [hsa-miR-1343]    7.58

Now turn to the next sequence.
Ask: Any idea what 5+ nucleoli phenotype percent effect came out for AGCCCGCCCCAGCCGAGGUUCU [hsa-miR-4707-3p] on MCF10A?
Result: -25.2

---

Test system: MCF10A
Assay: one-nucleolus phenotype percent effect (relative to siNT 0% and siNOL11 100%); higher = more cells with one nucleolus (ribosome biogenesis inhibition)
Conditions: 20 nM; 72 h
Readings of one-nucleolus phenotype percent effect for the listed sequences
Give the number; % is assumed, so skip it.

Worked examples, 5 sequences total:
UCAAAAUGUAGAGGAAGACCCCA [hsa-miR-4698]    -18.4
CAGGACUUGACGGCUGCAACU [hsa-miR-8083]    -1.33
CUCAUUUAAGUAGUCUGAUGCC [hsa-miR-5696]    -11.5
GUGCUUCAUCGUAAUUAACCUUA [hsa-miR-3977]    2.65
AUGAAGUGCACUCAUGAUAUGU [hsa-miR-3616-5p]    32.7

Now turn to the next sequence.
Ask: What one-nucleolus phenotype percent effect value was documented for this sequence, AUUCCUAGAAAUUGUUCAUA [hsa-miR-384] ?
Result: -8.73
